All values here come from BindingDB's records for doi:10.1016/j.bmcl.2003.11.074.

tgt: Lysozyme C-1 (Rattus norvegicus, UniProt P00697)
Sequence (P00697 whole entry): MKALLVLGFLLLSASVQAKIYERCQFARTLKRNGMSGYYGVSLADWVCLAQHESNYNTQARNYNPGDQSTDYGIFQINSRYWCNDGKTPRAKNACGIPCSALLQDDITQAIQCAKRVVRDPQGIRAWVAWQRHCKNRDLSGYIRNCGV
pIC50: −log10 of the molar value.
observedProperty: pIC50

>>> reported("O=c1c(O)c(-c2ccc(O)cc2)oc2cc(OC3O[C@H](CO)[C@@H](O)[C@H](O)[C@H]3O)cc(O)c12 (stereo partly drawn)")
"< 4.52"

O=c1c(-c2ccc(O)cc2O)coc2cc(O)cc(O)c12 tested on Lysozyme C-1 (Rattus norvegicus, UniProt P00697) gave pIC50: 5.01

COc1cc(O)ccc1-c1coc2cc(O)cc(O)c2c1=O tested on Lysozyme C-1 (Rattus norvegicus, UniProt P00697) gave pIC50: < 4.52
